Each item that follows carries a reported melting point.

CC(=O)n1cc(C2=CC(=O)NC2=O)c2cc(Br)ccc21 [Compound 57]
271 to 272.9 °C
O=C1NC(=O)C(n2ccc3ccccc32)=C1c1c[nH]c2ccc(C#Cc3ccccc3)cc12 [Compound 15]
141 to 144 °C

The compound listed as CN(C)C(=O)n1cc(C2=CC(=O)NC2=O)c2cc(Br)ccc21 [Compound 58] shows melting point equal to 287 to 288 °C

The compound listed as O=C1NC(=O)C(n2ccc3ccccc32)=C1c1c[nH]c2ccc(OCc3ccccc3)cc12 [Compound 5] shows melting point equal to 217 to 220 °C

The compound listed as O=C1NC(=O)C(n2ccc3ccccc32)=C1c1c[nH]c2ccccc12 [Compound 1] shows melting point equal to 212 to 213 °C

The compound listed as O=C1NC(=O)C(n2ccc3cc(OCc4ccccc4)ccc32)=C1c1c[nH]c2ccccc12 [Compound 12] shows melting point equal to 114 to 116 °C
